B1: HDV Ribozyme (parent)
chain: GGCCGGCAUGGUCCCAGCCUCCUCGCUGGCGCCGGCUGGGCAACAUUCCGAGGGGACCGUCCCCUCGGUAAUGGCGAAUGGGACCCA

Variants of: B1
Assay: self-cleavage, relative activity (ratio to wild type); higher = more cleavage; co-transcriptional
Field: class. Source value: self-cleavage. Ranges: low class = under 0.1, middle class = from 0.1 up to 0.7, high class = 0.7 and over

Problem: // return the class label for G2C C61U
Solution: middle class

Problem: // return the class label for G39C A78G
Solution: low class

Problem: // return the class label for G5A C21A
Solution: low class

Problem: // return the class label for A42C G59C
Solution: middle class

Problem: // return the class label for G17U G25C
Solution: low class

Problem: // return the class label for G1A G25C
Solution: low class

Problem: // return the class label for G6C G31A
Solution: middle class

Problem: // return the class label for G1U U37G
Solution: middle class

Problem: // return the class label for C36A U69G
Solution: middle class

Problem: // return the class label for G25C G68A
Solution: middle class

Problem: // return the class label for A56G G74C
Solution: middle class

Problem: // return the class label for G38U A78U
Solution: low class

Problem: // return the class label for G6A G50C
Solution: high class

Problem: // return the class label for C15A C21A
Solution: low class

Problem: // return the class label for U27A C58G
Solution: high class

Problem: // return the class label for U20C U47G
Solution: low class

Problem: // return the class label for G10U G68A
Solution: middle class

Problem: // return the class label for A42G G55C
Solution: middle class

Problem: // return the class label for G74C C84G
Solution: low class

Problem: // return the class label for G35C A71G
Solution: middle class

Problem: // return the class label for G10C C14G
Solution: middle class

Problem: // return the class label for U46A C61U
Solution: middle class

Problem: // return the class label for G50A A77G
Solution: high class

Problem: // return the class label for G67A U79G
Solution: high class

Problem: // return the class label for G1C G81C
Solution: middle class

Problem: // return the class label for C3U C48U
Solution: high class

Problem: // return the class label for A16G G76C
Solution: high class

Problem: // return the class label for G59U U65C
Solution: high class

Problem: // return the class label for C48U A71G
Solution: high class

Problem: // return the class label for C49U C86U
Solution: high class

Problem: // return the class label for G1C G2C
Solution: high class

Problem: // return the class label for G1U G34C
Solution: middle class

Problem: // return the class label for C3A U20C
Solution: middle class

Problem: // return the class label for C36U C75U
Solution: middle class

Problem: // return the class label for G2U G35A
Solution: low class

Problem: // return the class label for G25C G53A
Solution: low class
